The origin of these recorded values is ChEMBL document CHEMBL3603779.

ASSAY NOTES: Intrinsic clearance in human liver microsomes pre-incubated at 37 degC for 5 mins before NADPH addition by LCMS/MS method
Format: ADME
CONDITION DESCRIPTION: read-out: CLH
ASSAY ENDPOINT: microsomal CLint (µL/min/mg)

- COMPOUND: "CCn1c([C@@H](C)NS(=O)(=O)c2ccc(Cl)cc2)nc2ccc(CO)cc21"
  UNITS OF MEASURE: "µL/min/mg"
  microsomal CLint: 84
- COMPOUND: "CCn1c([C@@H](C)NS(=O)(=O)c2ccc(Cl)cc2)nc2cc(N3CCOCC3)ccc21"
  UNITS OF MEASURE: "µL/min/mg"
  microsomal CLint: 45
- COMPOUND: "CCn1c([C@@H](C)NS(=O)(=O)c2ccc(C#N)cc2)nc2ccc(C(F)(F)F)cc21"
  UNITS OF MEASURE: "µL/min/mg"
  microsomal CLint: 34
- COMPOUND: "CCn1c([C@@H](C)NS(=O)(=O)c2cnc(C)n2C)nc2ccc(C(F)(F)F)cc21"
  UNITS OF MEASURE: "µL/min/mg"
  microsomal CLint: 58
- COMPOUND: "CCn1c([C@@H](C)NS(=O)(=O)c2c(F)cc(F)cc2F)nc2ccc(C(F)(F)F)cc21"
  UNITS OF MEASURE: "µL/min/mg"
  microsomal CLint: 19

(a) CCn1c(C(C)NS(=O)(=O)c2ccc(Cl)cc2)nc2ncccc21 (centres undefined)
(b) CCn1c(C(C)NS(=O)(=O)c2ccc(Cl)cc2)nc2cccnc21 (centres undefined)
(c) CCn1c([C@@H](C)NS(=O)(=O)c2cn(C)c(C)n2)nc2ccc(C(F)(F)F)cc21
(d) CCn1c([C@@H](C)NS(=O)(=O)c2ccc(F)cc2)nc2ccc(C(F)(F)F)cc21
Challenge: Could you please sort these 4 entries by microsomal CLint from high to low? Form field (ranking): labels in requested order.
Response given: b, c, d, a

###

ASSAY NOTES: Oral bioavailability in beagle dog at 5 mg/kg by LCMS/MS method
Assay type: ADME, organism-based, Canis lupus familiaris
CONDITION DESCRIPTION: in vivo
ASSAY ENDPOINT: bioavailability (%)
// return numeric value only (unit: %, not printed)

Sure, the documented bioavailability for "CCn1c([C@@H](C)NS(=O)(=O)c2ccc(C#N)nc2)nc2cnc(C3CC3)cc21" is 71

###

ASSAY NOTES: Half life in beagle dog at 2.5 mg/kg, iv by LCMS/MS method
Format: ADME, organism-based, Canis lupus familiaris
CONDITION DESCRIPTION: in vivo
ASSAY ENDPOINT: half-life (h)
// return numeric value only (unit: h, not printed)

Sure, the documented half-life for "CCn1c([C@@H](C)NS(=O)(=O)c2ccc(C#N)nc2)nc2cnc(C(F)(F)F)cc21" is 4.9

###

ASSAY NOTES: Lipophilicity, log D of the compound at pH 7.4
Format: physicochemical
CONDITION DESCRIPTION: buffer
ASSAY ENDPOINT: logD

Example results:
- SMILES TEXT: "CCn1c([C@@H](C)NS(=O)(=O)c2ccc(C#N)nc2)nc2cnc(C(F)(F)F)cc21"
  RECORDED NUMBER: 1.3
- SMILES TEXT: "CCn1c([C@@H](C)NS(=O)(=O)c2ccc(C#N)cc2)nc2cnc(C(F)(F)F)cc21"
  RECORDED NUMBER: 1.6
- SMILES TEXT: "CCn1c([C@@H](C)NS(=O)(=O)c2ccc(C#N)cc2)nc2cnc(OC)cc21"
  RECORDED NUMBER: 1.4

(A) CCn1c([C@@H](C)NS(=O)(=O)c2ccc(C#N)cc2)nc2cnc(C3CC3)cc21
(B) CCn1c([C@@H](C)NS(=O)(=O)c2ccc(C#N)nc2)nc2cnc(OC)cc21
Challenge: Task for the reader: decide whether A or B has the larger logD. To answer, give the label that identifies your chosen option.
Response given: A
(A: 1.9, B: 1)

###

ASSAY NOTES: Oral bioavailability in beagle dog at 10 mg/kg by LCMS/MS method
Assay type: ADME, organism-based, Canis lupus familiaris
CONDITION DESCRIPTION: in vivo
ASSAY ENDPOINT: bioavailability (%)
// return numeric value only (unit: %, not printed)

Sure, the documented bioavailability for "CCn1c([C@@H](C)NS(=O)(=O)c2ccc(C#N)nc2)nc2cnc(C(F)(F)F)cc21" is 81

###

EXPERIMENTAL TARGET: Sphingosine 1-phosphate receptor 1 (Homo sapiens)
Sequence (P21453 whole entry): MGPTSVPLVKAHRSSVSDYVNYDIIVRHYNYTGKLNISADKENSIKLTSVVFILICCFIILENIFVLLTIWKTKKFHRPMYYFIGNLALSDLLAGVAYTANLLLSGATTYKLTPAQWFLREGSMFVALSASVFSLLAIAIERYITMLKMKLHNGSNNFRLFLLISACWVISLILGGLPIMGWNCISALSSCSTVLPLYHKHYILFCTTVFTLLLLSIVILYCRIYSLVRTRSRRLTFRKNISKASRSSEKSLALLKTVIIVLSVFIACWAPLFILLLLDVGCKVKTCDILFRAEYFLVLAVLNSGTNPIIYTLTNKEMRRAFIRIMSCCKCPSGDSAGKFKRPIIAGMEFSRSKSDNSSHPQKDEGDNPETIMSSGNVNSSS
ASSAY NOTES: Antagonist activity against human S1P1 receptor expressed in human U2OS cells co-expressing GFP assessed as inhibition of S1P-induced receptor translocation
ASSAY ENDPOINT: EC50 (nM)

Example results:
- SMILES TEXT: "CCn1c([C@@H](C)NS(=O)(=O)c2ccc(Cl)cc2)nc2cccc(Cl)c21"
  ASSAY ENDPOINT: "EC50"
  UNITS OF MEASURE: "nM"
  RECORDED NUMBER: 800
- SMILES TEXT: "CCn1c([C@@H](C)NS(=O)(=O)c2ccc(C#N)cc2)nc2cnc(OC)cc21"
  ASSAY ENDPOINT: "EC50"
  UNITS OF MEASURE: "nM"
  RECORDED NUMBER: 9

(A) CCn1c([C@@H](C)NS(=O)(=O)c2ccc(Cl)cc2)nc2ccc(OC)cc21
(B) CCn1c([C@@H](C)NS(=O)(=O)c2cnn(C(C)C)c2C)nc2ccc(C(F)(F)F)cc21
(C) CCn1c([C@@H](C)NS(=O)(=O)c2ccc(C#N)cc2)nc2cnc(C3CC3)cc21
Challenge: # rank by EC50, ascending (min first) Form field (ranking): labels in requested order.
Response given: C, A, B
(C: 6 nM, A: 9 nM, B: 1100 nM)

###

ASSAY NOTES: Oral bioavailability in Han Wistar rat at 10 mg/kg by LCMS/MS method
Format: ADME, organism-based
CONDITION DESCRIPTION: in vivo
ASSAY ENDPOINT: bioavailability (%)

- SMILES TEXT: "CCn1c([C@@H](C)NS(=O)(=O)c2ccc(C#N)nc2)nc2cnc(C3CC3)cc21"
  bioavailability [%]: 93
- SMILES TEXT: "CCn1c([C@@H](C)NS(=O)(=O)c2ccc(C#N)nc2)nc2cnc(C(F)(F)F)cc21"
  bioavailability [%]: 87

###

ASSAY NOTES: Intrinsic clearance in human hepatocytes assessed per 10^6 cells at 1 uM after 0.5 to 120 mins by LCMS/MS method
Format: ADME, cell-based, Hepatocyte
CONDITION DESCRIPTION: read-out: CLH
ASSAY ENDPOINT: hepatocyte CLint at 1 µM (µL/min/1e6 cells)

(1) CCn1c([C@@H](C)NS(=O)(=O)c2ccc(C#N)nc2)nc2cnc(C(F)(F)F)cc21
(2) CCn1c([C@@H](C)NS(=O)(=O)c2ccc(C#N)nc2)nc2cnc(C3CC3)cc21
Challenge: Task for the reader: decide whether 1 or 2 has the larger hepatocyte CLint at 1 µM. To answer, give the label that identifies your chosen option.
Response given: 1
(1: 1.2 µL/min/1e6 cells, 2: 0.2 µL/min/1e6 cells)

###

ASSAY NOTES: Half life in Han Wistar rat at 4 mg/kg, iv by LCMS/MS method
Assay type: ADME, organism-based
CONDITION DESCRIPTION: in vivo
ASSAY ENDPOINT: half-life (h)
// return numeric value only (unit: h, not printed)

Sure, the documented half-life for "CCn1c([C@@H](C)NS(=O)(=O)c2ccc(C#N)nc2)nc2cnc(C3CC3)cc21" is 2.9

###

ASSAY NOTES: Volume of distribution at steady state in beagle dog at 2.5 mg/kg, iv
Type: ADME, organism-based, Canis lupus familiaris
CONDITION DESCRIPTION: in vivo, read-out: Vdss
ASSAY ENDPOINT: Vd (L/kg)
// return numeric value only (unit: L/kg, not printed)

Sure, the documented Vd for "CCn1c([C@@H](C)NS(=O)(=O)c2ccc(C#N)nc2)nc2cnc(C(F)(F)F)cc21" is 0.6

###

ASSAY NOTES: Clearance in Han Wistar rat at 3 mg/kg, iv by LCMS/MS method
Assay type: ADME, organism-based
CONDITION DESCRIPTION: in vivo
ASSAY ENDPOINT: clearance (mL/min/kg)
// return numeric value only (unit: mL/min/kg, not printed)

Sure, the documented clearance for "CCn1c([C@@H](C)NS(=O)(=O)c2ccc(C#N)nc2)nc2cnc(C(F)(F)F)cc21" is 8

###

ASSAY NOTES: Aqueous equilibrium solubility in pH 7.4 phosphate buffer incubated for 24 hrs by HPLC-UV and MS method
Assay type: physicochemical
ASSAY ENDPOINT: solubility thermodynamic at 24 h (µM)
// return numeric value only (unit: µM, not printed)

Sure, the documented solubility thermodynamic at 24 h for "CCn1c([C@@H](C)NS(=O)(=O)c2ccc(C#N)nc2)nc2cnc(C(F)(F)F)cc21" is 765
